- Tested target: recombinant human cytosolic PEPCK (Homo sapiens)
- Measurement description: PEPCK enzyme assay (coupled pyruvate kinase/lactate dehydrogenase, absorbance at 340)
- Run parameters: recombinant human cytosolic GST-PEPCK; GTP and OAA at 3 fold and 10 fold Km; final DMSO 10%; room temperature, twenty minutes; read-out: In vitro IC50
Assay readout: IC50 (nM)
Please give a number only; it is taken to be in nM.

Reference set, count: 4
Query smiles: CN(C(=O)c1cccnc1O)c1ccc(Cc2nc3c([nH]2)c(=O)n(Cc2ccccc2F)c(=O)n3CC2CC2)cc1
IC50 / nM: 630
--
Query smiles: CCCCN(C(=O)c1ccc(C)nc1)c1ccc(Cc2nc3c([nH]2)c(=O)n(Cc2ccccc2F)c(=O)n3CCCC)cc1
IC50 / nM: 560
--
Query smiles: CN(C(=O)Cc1cccnc1)c1ccc(Cc2nc3c([nH]2)c(=O)n(Cc2ccccc2F)c(=O)n3CC2CC2)cc1
IC50 / nM: 410
--
Query smiles: Cc1noc(C)c1C(=O)N(C)c1ccc(Cc2nc3c([nH]2)c(=O)n(Cc2ccccc2F)c(=O)n3CC2CC2)cc1
IC50 / nM: 660

# CC(=O)Nc1cccc(C(=O)N(C)c2ccc(Cc3nc4c([nH]3)c(=O)n(Cc3ccccc3F)c(=O)n4CC3CC3)cc2)n1 with recombinant human cytosolic PEPCK (Homo sapiens): IC50 is 560

For the compound Cc1nc(N)sc1C(=O)N(C)c1ccc(Cc2nc3c([nH]2)c(=O)n(Cc2ccccc2F)c(=O)n3CC2CC2)cc1 , the measured IC50 on recombinant human cytosolic PEPCK (Homo sapiens) was 370

Entry Cc1ncccc1C(=O)N(C)c1ccc(Cc2nc3c([nH]2)c(=O)n(Cc2ccccc2F)c(=O)n3CC2CC2)cc1 , tested on recombinant human cytosolic PEPCK (Homo sapiens), has a reported IC50 of 370

---

- Tested target: recombinant human cytosolic PEPCK (Homo sapiens)
- Sequence (P35558 1-622): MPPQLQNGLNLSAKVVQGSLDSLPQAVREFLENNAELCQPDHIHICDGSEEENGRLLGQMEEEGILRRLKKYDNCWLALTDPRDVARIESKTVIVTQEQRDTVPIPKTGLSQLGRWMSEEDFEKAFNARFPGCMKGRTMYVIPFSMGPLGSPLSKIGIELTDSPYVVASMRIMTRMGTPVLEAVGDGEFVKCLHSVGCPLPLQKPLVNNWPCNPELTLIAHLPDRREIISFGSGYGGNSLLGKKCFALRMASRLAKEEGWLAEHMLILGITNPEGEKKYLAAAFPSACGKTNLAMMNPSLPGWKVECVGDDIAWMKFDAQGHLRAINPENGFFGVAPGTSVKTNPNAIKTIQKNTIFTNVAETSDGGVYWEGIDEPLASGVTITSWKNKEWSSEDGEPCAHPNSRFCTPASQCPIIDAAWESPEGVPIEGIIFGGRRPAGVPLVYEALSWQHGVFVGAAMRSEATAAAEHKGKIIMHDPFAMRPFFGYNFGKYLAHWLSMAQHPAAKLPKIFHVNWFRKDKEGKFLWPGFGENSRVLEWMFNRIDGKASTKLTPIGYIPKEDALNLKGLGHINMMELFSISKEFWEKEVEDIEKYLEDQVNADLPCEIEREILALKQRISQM
- Measurement description: PEPCK enzyme assay (coupled pyruvate kinase/lactate dehydrogenase, absorbance at 340)
- Run parameters: recombinant human cytosolic GST-PEPCK; GTP and OAA at 3 fold and 10 fold Km; final DMSO 10%; room temperature, twenty minutes; read-out: In vitro IC50
Each entry below carries its recorded IC50.

Molecule: Cc1ccc(C(=O)N(c2ccc(Cc3nc4c([nH]3)c(=O)n(Cc3ccccc3F)c(=O)n4CC3CC3)cc2)C(C)C)cn1 [Example 119]
Result: 310 nM

Looking up Cc1nn(C)c(Cl)c1C(=O)N(C)c1ccc(Cc2nc3c([nH]2)c(=O)n(Cc2ccccc2F)c(=O)n3CC2CC2)cc1 [Example 104] , I see its IC50 listed as 280 nM

The molecule listed as Cc1ccc(C(=O)N(C)c2ccc(Cc3nc4c([nH]3)c(=O)n(Cc3ccccc3F)c(=O)n4CC3CC3)cc2)cn1 [Example 86] has a reported IC50 of 420 nM

The reported value for Cc1nn(C)c(C)c1C(=O)C(=O)N(C)c1ccc(Cc2nc3c([nH]2)c(=O)n(Cc2ccccc2F)c(=O)n3CC2CC2)cc1 [Example 103] in terms of IC50 is 250 nM

The measured IC50 associated with CN(C(=O)c1cnn(C)c1)c1ccc(Cc2nc3c([nH]2)c(=O)n(Cc2ccccc2F)c(=O)n3CC2CC2)cc1 [Example 112] reads 690 nM

Entry under test: CN(C(=O)c1ccc(N)nc1)c1ccc(Cc2nc3c([nH]2)c(=O)n(Cc2ccccc2F)c(=O)n3CC2CC2)cc1 [Example 94] . Its IC50 was 340 nM

Reported IC50 ( CCN(C(=O)c1c(C)nn(C)c1C)c1ccc(Cc2nc3c([nH]2)c(=O)n(Cc2ccccc2F)c(=O)n3CC2CC2)cc1 [Example 117] ) = 190 nM

IC50 reported for this molecule COc1ccc(C(=O)N(C)c2ccc(Cc3nc4c([nH]3)c(=O)n(Cc3ccccc3F)c(=O)n4CC3CC3)cc2)c(OC)n1 [Example 90] : 340 nM

Data point: CC(=O)Nc1ccc(Cc2nc3c([nH]2)c(=O)n(Cc2ccccc2F)c(=O)n3C[C@@H]2C[C@@H]2C(=O)O)cc1 (relative stereo) [Example 47] ; IC50 = 560 nM

Lab note: measured IC50 of Cc1nnsc1C(=O)N(C)c1ccc(Cc2nc3c([nH]2)c(=O)n(Cc2ccccc2F)c(=O)n3CC2CC2)cc1 [Example 108] was 550 nM

IC50 in this record for Cc1nn(C)cc1C(=O)N(C)c1ccc(Cc2nc3c([nH]2)c(=O)n(Cc2ccccc2F)c(=O)n3CC2CC2)cc1 [Example 107] : 500 nM

---

- Tested target: recombinant human cytosolic PEPCK (Homo sapiens, UniProt P35558)
- Measurement description: PEPCK enzyme assay (coupled pyruvate kinase/lactate dehydrogenase, absorbance at 340)
- Run parameters: recombinant human cytosolic GST-PEPCK; GTP and OAA at 3 fold and 10 fold Km; final DMSO 10%; room temperature, twenty minutes; read-out: In vitro IC50
Assay readout: IC50
State the value with its unit after it.

Examples from the recorded data:
Query smiles: CN(C(=O)c1cnccn1)c1ccc(Cc2nc3c([nH]2)c(=O)n(Cc2ccccc2F)c(=O)n3CC2CC2)cc1
Tested target: recombinant human cytosolic PEPCK (Homo sapiens, UniProt P35558)
IC50: 460 nM

Query smiles: CC(=O)Nc1ccc(C(=O)N(C)c2ccc(Cc3nc4c([nH]3)c(=O)n(Cc3ccccc3F)c(=O)n4CC3CC3)cc2)cn1
Tested target: recombinant human cytosolic PEPCK (Homo sapiens, UniProt P35558)
IC50: 440 nM

Let's switch to this compound now.
# IC50 (compound: Cc1ccc(C(=O)N(CC2CCC2)c2ccc(Cc3nc4c([nH]3)c(=O)n(Cc3ccccc3F)c(=O)n4CC3CCC3)cc2)cn1 ) is 390 nM

---

- Tested target: recombinant human cytosolic PEPCK (Homo sapiens, UniProt P35558)
- Measurement description: PEPCK enzyme assay (coupled pyruvate kinase/lactate dehydrogenase, absorbance at 340)
- Run parameters: recombinant human cytosolic GST-PEPCK; GTP and OAA at 3 fold and 10 fold Km; final DMSO 10%; room temperature, twenty minutes; read-out: In vitro IC50
Assay readout: IC50 (nM)
// return numeric value only (unit: nM, not printed)

Worked examples, 3 compounds total:
Query smiles: Cc1nc(C)c(C(=O)N(C)c2ccc(Cc3nc4c([nH]3)c(=O)n(Cc3ccccc3F)c(=O)n4CC3CC3)cc2)s1
IC50 [nM]: 320
//
Query smiles: CN(C(=O)c1ccc(C#N)nc1)c1ccc(Cc2nc3c([nH]2)c(=O)n(Cc2ccccc2F)c(=O)n3CC2CC2)cc1
IC50 [nM]: 440
//
Query smiles: CN(C(=O)c1csnn1)c1ccc(Cc2nc3c([nH]2)c(=O)n(Cc2ccccc2F)c(=O)n3CC2CC2)cc1
IC50 [nM]: 660

// CN(C(=O)c1sccc1C(N)=O)c1ccc(Cc2nc3c([nH]2)c(=O)n(Cc2ccccc2F)c(=O)n3CC2CC2)cc1 : IC50 value = 930

GET /value?item= Cc1ccc(C(=O)N(C)c2ccc(Cc3nc4c([nH]3)c(=O)n(Cc3ccccc3F)c(=O)n4CC3CCC3)cc2)cn1 &field=IC50 returns 340

Reported IC50 ( CN(C(=O)c1cccnc1)c1ccc(Cc2nc3c([nH]2)c(=O)n(Cc2ccccc2F)c(=O)n3CC2CC2)cc1 ) = 420

Cc1nocc1C(=O)N(C)c1ccc(Cc2nc3c([nH]2)c(=O)n(Cc2ccccc2F)c(=O)n3CC2CC2)cc1 yielded IC50 of 570

Noted for Cc1oncc1C(=O)N(C)c1ccc(Cc2nc3c([nH]2)c(=O)n(Cc2ccccc2F)c(=O)n3CC2CC2)cc1 : its IC50 reads 740
